Metric: melting point (°C)
Write the value in °C as a bare number.

Input: Which value of melting point has been reported for CCc1nc2ccc(Cl)cn2c1C(=O)NCc1ccc(N2CC3(CCC3)C2)cc1 in the records?
Output: 142.39

Input: What about this molecule? CCc1nc2ncc(Cl)cn2c1C(=O)NCc1ccc(N2CC3(CC(c4ccc(OC)c(F)c4)C3)C2)cc1
Output: 156.54

Input: What about this molecule? CCc1nc2ccc(Cl)cn2c1C(=O)NCc1ccc(N2CC3(C2)CN(c2ccc(OC(F)(F)F)cc2)C3)cc1
Output: 184.57

Input: What about this molecule? CCc1nc2ccc(Cl)cn2c1C(=O)NCC1CC2(C1)CN(c1ccc(OC(F)(F)F)cc1)C2
Output: 165.12

Input: What about this molecule? CCc1nc2ccc(Cl)cn2c1C(=O)NCc1ccc(N2CC3(CN(C(C)=O)C3)C2)cc1
Output: 237.63

Input: What about this molecule? CCc1nc2ncc(Cl)cn2c1C(=O)NCc1ccc(N2CC3(CC(OC(F)F)C3)C2)cc1
Output: 163.21

Input: What about this molecule? Cc1nn2ccccc2c1C(=O)NCc1ccc(C2CC3(C2)CN(c2ccc(S(F)(F)(F)(F)F)cc2)C3)cc1
Output: 166.29

Input: What about this molecule? Cc1nn2ccccc2c1C(=O)NCC1CC2(CCN(c3ccc(OC(F)(F)F)cc3)CC2)C1
Output: 121.52

Input: What about this molecule? CCc1nn2ccccc2c1C(=O)NCc1ccc(C2CC3(C2)CN(c2ccc(S(F)(F)(F)(F)F)cc2)C3)cc1
Output: 177.08

Input: What about this molecule? CCc1nc2ncc(Cl)cn2c1C(=O)NCc1ccc(N2CC3(CC(OC)C3)C2)cc1
Output: 127.22

Input: What about this molecule? CCc1nn2ccccc2c1C(=O)NCc1ccc(N2CC3(C2)CN(c2ccc(OC(F)(F)F)cc2)C3)cc1
Output: 135.8

Input: What about this molecule? CCc1nc2c(F)cccn2c1C(=O)NCc1ccc(C2CC3(C2)CN(c2ccc(OC(F)(F)F)cc2)C3)cc1
Output: 144.55

Input: What about this molecule? CCc1nc2ccc(Cl)cn2c1C(=O)NCc1ccc(N2CC3(CC(=O)C3)C2)cc1
Output: 182.82

Input: What about this molecule? CCc1nc2n(c1C(=O)NCc1ccc(N3CC4(CC(OC)C4)C3)cc1)CCCC2
Output: 147.41

Input: What about this molecule? CCc1nc2ccc(Cl)cn2c1C(=O)NCc1ccc(C2CC3(C2)CN(c2cccnc2)C3)cc1
Output: 147.85

Input: What about this molecule? CCc1nn2ccccc2c1C(=O)NCC1CC2(C1)CN(c1ccc(OC(F)(F)F)cc1)C2
Output: 150.69

###

Metric: melting point (°C)
Write the value in °C as a bare number.

Input: Which value of melting point has been reported for CCc1nc2ccc(Cl)cn2c1C(=O)NCc1ccc(N2CC3(C2)CC2(C3)OCCCO2)cc1 in the records?
Output: 154.23

Input: What about this compound? CCc1nc2ncc(Cl)cn2c1C(=O)NCc1ccc(N2CC3(C2)CC(F)(F)C3)cc1
Output: 158.14

Input: What about this compound? CCc1nc2n(c1C(=O)NCc1ccc(N3CC4(CC(c5ccc(OC(F)(F)F)cc5)C4)C3)cc1)CCCC2
Output: 190.78

Input: What about this compound? Cc1nn2ccccc2c1C(=O)NCc1ccc(N2CC3(CN(F)C3)C2)cc1
Output: 130.31

Input: What about this compound? CCc1nc2ncc(Cl)cn2c1C(=O)NCc1ccc(N2CC3(C2)CN(c2ccc(OC(F)(F)F)cc2)C3)cc1
Output: 242.43

Input: What about this compound? CCc1nc2ccc(Cl)cn2c1C(=O)NCc1ccc(N2CC3(CCN(c4ccc(OC(F)(F)F)cc4)C3)C2)cc1
Output: 136.04

Input: What about this compound? CCc1nc2sc(C)cn2c1C(=O)NCc1ccc(N2CC3(CC(O)C3)C2)cc1
Output: 300

Input: What about this compound? CCc1nn2ccccc2c1C(=O)NCc1ccc(N2CC3(CC(c4ccc(OC(F)(F)F)cc4)C3)C2)cc1
Output: 126.57
